Quick reference: melting point of the listed items.

Study these solved cases before continuing.
Task item: Annotate the molecule `N#Cc1nc(Cl)ccc1Cl` with its measured melting point.
Reply: 98 to 100 °C

Task item: Annotate the molecule `CN(C)S(=O)(=O)c1ccc(NC(=O)CCl)cc1` with its measured melting point.
Reply: 115 to 117 °C

Task item: Annotate the molecule `O=C1CSCc2ccccc21` with its measured melting point.
Reply: 56 to 58 °C

Task item: Annotate the molecule `Cc1ccc(C)c(-n2cnc(O)n2)c1` with its measured melting point.
Reply: 166 to 168 °C

Task item: Annotate the molecule `O=C(O)C1=COCCC1` with its measured melting point.
Reply: 71 to 73 °C

Further cases:
Task item: Annotate the molecule `Cc1cc(C)n(CC(=O)O)n1` with its measured melting point.
Reply: 187 to 189 °C

Task item: Annotate the molecule `O=S(=O)(c1cccs1)N1CCNCC1` with its measured melting point.
Reply: 98 to 100 °C

Task item: Annotate the molecule `NC(=O)CCSc1ccccc1F` with its measured melting point.
Reply: 84 to 86 °C
